These measurements were taken from ChEMBL document CHEMBL1208732.

- target or system: UniProt Q99835
- Sequence (Q99835 whole entry): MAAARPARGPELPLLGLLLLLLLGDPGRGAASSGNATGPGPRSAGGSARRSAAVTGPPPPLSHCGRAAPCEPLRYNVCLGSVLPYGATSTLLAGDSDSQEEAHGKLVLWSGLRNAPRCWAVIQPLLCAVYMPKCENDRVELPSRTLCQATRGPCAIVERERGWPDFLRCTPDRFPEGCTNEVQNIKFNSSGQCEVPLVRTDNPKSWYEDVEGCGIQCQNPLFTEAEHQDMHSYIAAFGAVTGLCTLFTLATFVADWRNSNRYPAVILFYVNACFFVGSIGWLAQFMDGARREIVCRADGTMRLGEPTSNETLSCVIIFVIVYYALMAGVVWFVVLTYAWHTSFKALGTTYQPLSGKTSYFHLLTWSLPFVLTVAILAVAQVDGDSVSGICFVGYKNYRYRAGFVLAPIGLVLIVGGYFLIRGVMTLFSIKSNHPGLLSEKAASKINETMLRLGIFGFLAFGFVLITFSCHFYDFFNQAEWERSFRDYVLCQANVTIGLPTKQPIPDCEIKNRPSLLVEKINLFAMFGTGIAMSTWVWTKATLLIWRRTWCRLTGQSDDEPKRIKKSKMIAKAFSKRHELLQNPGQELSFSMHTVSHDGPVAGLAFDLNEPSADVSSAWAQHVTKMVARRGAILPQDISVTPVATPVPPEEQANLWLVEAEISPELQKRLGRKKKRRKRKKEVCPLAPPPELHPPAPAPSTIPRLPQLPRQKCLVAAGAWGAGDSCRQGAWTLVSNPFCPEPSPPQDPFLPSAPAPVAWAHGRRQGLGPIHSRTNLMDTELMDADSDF
- assay explanation: Antagonist activity at human Smo receptor in HEPM cells assessed as inhibition of Gli expression after 24 hrs by quantigene assay
readout name: IC50 (nM)

smiles input: C[C@@H]1CN(C(=O)c2ccccc2)CCN1c1nnc(-n2ccc3ccccc32)c2ccccc12
readout name: IC50
result units: nM
endpoint value: 8

smiles input: C[C@@H]1CN(C(=O)c2ccccc2)CCN1c1nnc(-c2ccccc2)c2cnccc12
readout name: IC50
result units: nM
endpoint value: 12

A. C[C@@H]1CN(C(=O)c2ccccc2)CCN1c1nnc(-n2cccc2)c2ccccc12
B. C[C@@H]1CN(C(=O)c2ccccc2)CCN1c1nnc(-c2ccccc2)c2cccnc12
Q: Rank A against B by their IC50 values and give the higher one. // caller expects the label of the chosen entry
A: B
